# Target of assay: RARγ (Homo sapiens, UniProt P13631)
# Sequence (P13631 whole entry): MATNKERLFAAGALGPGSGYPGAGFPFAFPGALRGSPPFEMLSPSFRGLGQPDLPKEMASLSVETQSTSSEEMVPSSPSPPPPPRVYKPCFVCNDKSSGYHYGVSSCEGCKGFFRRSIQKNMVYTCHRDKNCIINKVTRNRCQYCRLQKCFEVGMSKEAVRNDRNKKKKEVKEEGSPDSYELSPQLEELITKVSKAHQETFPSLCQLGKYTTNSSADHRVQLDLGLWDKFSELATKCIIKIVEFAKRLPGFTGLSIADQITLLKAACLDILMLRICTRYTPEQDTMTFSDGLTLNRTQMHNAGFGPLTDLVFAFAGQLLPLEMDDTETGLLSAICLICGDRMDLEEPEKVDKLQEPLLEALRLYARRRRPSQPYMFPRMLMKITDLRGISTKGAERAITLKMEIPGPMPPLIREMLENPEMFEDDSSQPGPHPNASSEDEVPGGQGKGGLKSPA
# Assay details: Co-transfection assay
# Assay type: cell-based
# Setup conditions: read-out: RARγ Pot
pEC50: −log10 of the molar value.
Value type: pEC50

{"Molecule": "CC(/C=C/C=C(\\C)c1cc(C(F)(F)F)cc(C(F)(F)F)c1)=C\\C(=O)O [Compound 41]", "pEC50": 8.40}

1 = COc1c(C(C)(C)C)cc(/C(C)=C/C=C/C(C)=C/C(=O)O)cc1C(C)(C)C [Compound 47]
2 = C/C(=C/C=C/C(C)=C/C(=O)O)c1cc(C(C)C)cc(C(C)C)c1 [Compound 43]
3 = CC(/C=C/C=C1\CCOc2c1cc(C(C)(C)C)cc2C(C)(C)C)=C\C(=O)O [Compound 39]
Request: Reorder: pEC50, max to min. Give the labels in the order requested.
Result: 1, 3, 2
